# Organism: Rattus norvegicus
# testProtocol: DrugMatrix - Regimen: Daily Repeat
# Assay type: toxicity, organism-based, Sprague-Dawley
# Design: regimen Daily Repeat, gender Male, age 6-8 weeks
# particulars: in vivo, po, 0 mg/kg, 120 h, tissue Blood, route oral GAVAGE, dose level Control, time 5 day, vehicle .5 % CMC
assayReadout: MEAN CORPUSCULAR VOLUME (fL)
Answer format: numeric, fL implied, no suffix.

Query: Fill in the blank: the reported MEAN CORPUSCULAR VOLUME of Nc1ccn([C@H]2CC[C@@H](CO)O2)c(=O)n1 [ZALCITABINE] is ____.
Response: 61.43

Query: Can you handle Cc1ccc(/N=C/N(C)/C=N/c2ccc(C)cc2C)c(C)c1 [AMITRAZ] next?
Response: 61.82

Query: Can you handle CC1CC(OC(=O)C(O)c2ccccc2)CC(C)(C)C1 (stereo not drawn) [CYCLANDELATE] next?
Response: 60.65

Query: Can you handle ClC(Cl)Br [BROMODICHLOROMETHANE] next?
Response: 61.78

Query: Can you handle C1CCC(C(CC2CCCCN2)C2CCCCC2)CC1 (stereo not drawn) [PERHEXILINE] next?
Response: 64.6

Query: Can you handle O=C(CCCN1CC=C(n2c(=O)[nH]c3ccccc32)CC1)c1ccc(F)cc1 [DROPERIDOL] next?
Response: 63.72

Query: Can you handle Cc1nc2n(c(=O)c1CCN1CCC(c3noc4cc(F)ccc34)CC1)CCCC2 [RISPERIDONE] next?
Response: 59.55

Query: Can you handle CN1CCN(CCCN2c3ccccc3Sc3ccc(Cl)cc32)CC1 [PROCHLORPERAZINE] next?
Response: 63.13
